Reported pIC50 values for the following compounds.
# Experimental Target: human Cot catalytic domain (30-397 amino acids) (Homo sapiens, UniProt P41279)
# Construct: Purified recombinant human Cot catalytic domain (30-397 amino acids) was purchased from Cama Biosciences; purchased Cama Biosciences (so in the source)
# Sequence (P41279 30-397): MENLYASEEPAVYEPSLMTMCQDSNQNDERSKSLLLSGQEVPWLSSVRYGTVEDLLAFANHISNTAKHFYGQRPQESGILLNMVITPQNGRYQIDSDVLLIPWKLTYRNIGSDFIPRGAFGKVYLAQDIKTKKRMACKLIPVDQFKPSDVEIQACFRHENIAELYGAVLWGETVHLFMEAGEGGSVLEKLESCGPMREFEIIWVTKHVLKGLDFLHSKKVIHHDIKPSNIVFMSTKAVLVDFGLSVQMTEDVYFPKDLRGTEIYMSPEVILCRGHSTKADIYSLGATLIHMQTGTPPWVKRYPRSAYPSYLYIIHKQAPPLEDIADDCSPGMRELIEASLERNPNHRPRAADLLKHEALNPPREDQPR
# Procedure Details: High Throughput Cot Biochemical Assay (KinEASE TR-FRET)
# Test Conditions: Cot KinEASE TR-FRET, 400 μM ATP; read-out: IC50 HTRF
pIC50: −log10 of the molar value.
Readout Name: pIC50

>>> val("Cc1c(C#N)cccc1[C@H](Nc1cc(C#N)c2ncc(C#N)c(NCC(C)(C)C)c2c1)c1cn(C2(CF)CC2)nn1")
8.70
>>> val("[2H][C@](Nc1cc(C#N)c2ncc(C#N)c(NC3CCCC3(C)C)c2c1)(c1ccc(F)cc1)c1cn(C2(C(F)(F)F)CC2)nn1 (stereo partly drawn)")
7.66
>>> val("CC(C)(C)CNc1c(C#N)cnc2c(C#N)cc(N[C@@H](c3ccc(F)cc3)c3cn(C45CC(C4)C5)nn3)cc12")
8.00
>>> val("CCN1CCC(n2cc([C@@H](Nc3cc(Cl)c4ncc(C#N)c(Nc5ccc(F)c(Cl)c5)c4c3)c3ccccc3)nn2)CC1")
8.70
>>> val("CC(C)(C)CNc1c(C#N)cnc2c(C#N)cc(N[C@H](c3cn(Cc4c(F)cccc4F)nn3)c3ccccc3Cl)cc12")
7.59
>>> val("CC(C)(C)CNc1c(C#N)cnc2c(C#N)cc(N[C@H](c3cn(C4(C(N)=O)CCC4)nn3)c3ccccc3Cl)cc12")
8.52

###

# Experimental Target: human Cot catalytic domain (30-397 amino acids) (Homo sapiens)
# Construct: Purified recombinant human Cot catalytic domain (30-397 amino acids) was purchased from Cama Biosciences; purchased Cama Biosciences (so in the source)
# Procedure Details: High Throughput Cot Biochemical Assay (KinEASE TR-FRET)
# Test Conditions: Cot KinEASE TR-FRET, 400 μM ATP; read-out: IC50 HTRF
Hi! Could you tag entries with IC50 below 7 nM as Condition met, and those at or above as Condition not met? Much appreciated.

>>> classification("CC(C)(C)CNc1c(C#N)cnc2c(C#N)cc(N[C@H](c3cn(C4(C(N)=O)CC4)nn3)c3ccccc3Cl)cc12 [Example 957]")
"Condition met"
>>> classification("N#Cc1cnc2c(Cl)cc(N[C@@H](c3ccccc3)c3cn(C4CC4)nn3)cc2c1N[C@@H](c1ccccc1)C(F)(F)CO [Example 986]")
"Condition not met"
>>> classification("Cc1c(C#N)cccc1[C@H](Nc1cc(C#N)c2ncc(C#N)c(NCC(C)(C)C(F)(F)F)c2c1)c1cn(C2(C(F)F)CC2)nn1 [Example 1125]")
"Condition met"
>>> classification("N#CCC[C@@H](Nc1c(C#N)cnc2c(C#N)cc(N[C@H](c3cn(C4CC4)nn3)c3ccccc3Cl)cc12)c1ccccc1 [Example 945]")
"Condition met"
>>> classification("Cc1c(-c2ccncc2)cccc1[C@H](Nc1cc(Cl)c2ncc(C#N)c(NCC(C)(C)C)c2c1)c1cn(C2(C(F)(F)F)CC2)nn1 [Example 1095]")
"Condition not met"

###

# Experimental Target: human Cot catalytic domain (30-397 amino acids) (Homo sapiens)
# Construct: Purified recombinant human Cot catalytic domain (30-397 amino acids) was purchased from Cama Biosciences; purchased Cama Biosciences (so in the source)
# Procedure Details: High Throughput Cot Biochemical Assay (KinEASE TR-FRET)
# Test Conditions: Cot KinEASE TR-FRET, 400 μM ATP; read-out: IC50 HTRF
pIC50: −log10 of the molar value.
Lab note: anything with pIC50 at or over 8 counts as Yes; the rest go in No.

>>> classification("CCN1CCC(n2cc(C(Nc3cc(Cl)c4ncc(C#N)c(Nc5ccc(F)c(Cl)c5)c4c3)c3ccc(Cl)c(Cl)c3)nn2)CC1 (stereo not drawn)")
"No"
>>> classification("Cc1c(-c2ccncc2)cccc1[C@H](Nc1cc(C#N)c2ncc(C#N)c(NCC(C)(C)C)c2c1)c1cn(C2(C(F)(F)F)CC2)nn1")
"Yes"
>>> classification("Cc1c(-c2ccnnc2)cccc1[C@H](Nc1cc(C#N)c2ncc(C#N)c(NCC(C)(C)C)c2c1)c1cn(C2(C(F)F)CC2)nn1")
"Yes"
>>> classification("N#Cc1cnc2c(Cl)cc(NC(c3ccc(F)cc3)c3nccs3)cc2c1Nc1ccc(F)c(Cl)c1 (stereo not drawn)")
"No"
>>> classification("N#Cc1cnc2ccc(NC(c3ccc(F)cc3)c3cn(C4CCN(C(=O)OCc5ccccc5)CC4)nn3)cc2c1Nc1ccc(F)c(Cl)c1 (stereo not drawn)")
"No"

###

# Experimental Target: human Cot catalytic domain (30-397 amino acids) (Homo sapiens, UniProt P41279)
# Construct: Purified recombinant human Cot catalytic domain (30-397 amino acids) was purchased from Cama Biosciences; purchased Cama Biosciences (so in the source)
# Procedure Details: High Throughput Cot Biochemical Assay (KinEASE TR-FRET)
# Test Conditions: Cot KinEASE TR-FRET (HTRF) biochemical assay, 400 μM ATP; read-out: IC50 HTRF
Readout Name: IC50

>>> val("[2H][C@](Nc1cc(F)c2ncc(C#N)c(N[C@H](CCC#N)c3ccccc3)c2c1)(c1cccc(C#N)c1)c1cn(C2CC2)nn1 [Example 164]")
"1 nM"
>>> val("CC(C)(C)CNc1c(C#N)cnc2c(C#N)cc(N[C@H](c3cn(C4CC4)nn3)c3ccccc3Cl)cc12 [Example 211]")
"6 nM"
>>> val("N#Cc1cnc2c(Cl)cc(N[C@@H](c3ccc(F)cc3)c3c[nH]nn3)cc2c1Nc1cncc(F)c1 [Example 353]")
"104 nM"
>>> val("[2H][C@](Nc1cc(-c2cccnc2)c2ncc(C#N)c(NCC(C)(C)C)c2c1)(c1ccc(F)cc1)c1cn(C2CC2)nn1 [Example 170]")
"48 nM"
>>> val("CN(C)C(=O)c1cccc([C@H](Nc2cc(Cl)c3ncc(C#N)c(Nc4ccc(F)c(Cl)c4)c3c2)c2cn(C3CCN(C(C)(C)C)CC3)nn2)c1 [Compound 20]")
"1 nM"
>>> val("CC(C)(C)CNc1c(C#N)cnc2c(Br)cc(N[C@@H](c3cccc(C(=O)N4CC(F)C4)c3)c3cn(C4CC4)nn3)cc12 [Example 53]")
"5 nM"

###

# Experimental Target: human Cot catalytic domain (30-397 amino acids) (Homo sapiens)
# Construct: Purified recombinant human Cot catalytic domain (30-397 amino acids) was purchased from Cama Biosciences; purchased Cama Biosciences (so in the source)
# Procedure Details: High Throughput Cot Biochemical Assay (KinEASE TR-FRET)
# Test Conditions: Cot biochemical HTRF (KinEASE TR-FRET) assay; read-out: IC50 HTRF
Readout Name: IC50 (nM)

>>> val("CC[C@@H](Nc1c(C#N)cnc2c(Cl)cc(N[C@@H](c3ccc(F)cc3)c3c[nH]nn3)cc12)c1ccccc1")
17
>>> val("CC1(Cn2cc([C@@H](Nc3cc(Cl)c4ncc(C#N)c(Nc5cnc(F)c(F)c5)c4c3)c3ccc(F)cc3)nn2)CC1")
50
>>> val("N#Cc1cnc2c(Cl)cc(NC(c3ccccc3)c3nn[nH]c3CN3CCOCC3)cc2c1Nc1ccc(F)c(Cl)c1 (stereo not shown)")
301
>>> val("CC(C)(C)N1CCC(n2cc([C@@H](Nc3cc(Cl)c4ncc(C#N)c(Nc5ccc(F)c(Cl)c5)c4c3)c3cccc(C(=O)N4CCCCC4)c3)nn2)CC1")
6
>>> val("CC(C)(C)N1CCC(n2cc([C@@H](Nc3cc(Cl)c4ncc(C#N)c(NC5CCOCC5)c4c3)c3ccc(Cl)cc3)nn2)CC1")
70
>>> val("CC(C)(C)N1CCC(n2cc([C@@H](Nc3cc(Cl)c4ncc(C#N)c(Nc5cc(Cl)ccc5Cl)c4c3)c3ccccc3)nn2)CC1")
52
>>> val("N#Cc1cnc2c(Cl)cc(N[C@@H](c3ccc(Cl)cc3)c3c[nH]nn3)cc2c1Nc1cc(Cl)ccc1F")
664
>>> val("CC(C)(C)N1CCC(n2cc([C@@H](Nc3cc(Cl)c4ncc(C#N)c(Nc5cnc(F)c(F)c5)c4c3)c3ccc(Cl)cc3)nn2)CC1")
14
>>> val("N#Cc1cnc2c(Cl)cc(N[C@@H](c3ccccc3)c3cn(C4CNCC(F)(F)C4)nn3)cc2c1Nc1ccc(F)c(Cl)c1 (stereo partly shown)")
60
>>> val("CC1(C)CC(n2cc([C@@H](Nc3cc(F)c4ncc(C#N)c(Nc5ccc(F)c(Cl)c5)c4c3)c3ccc(Cl)cc3)nn2)CC(C)(C)N1")
134
>>> val("N#Cc1cnc2c(F)cc(N[C@@H](c3ccc(Cl)cc3)c3cn(C4CCN(C5COC5)CC4)nn3)cc2c1Nc1ccc(F)c(Cl)c1")
103
>>> val("N#Cc1cnc2c(Cl)cc(N[C@@H](c3ccc(F)cc3)c3cn(CC4(F)COC4)nn3)cc2c1Nc1cnc(F)c(F)c1")
69

Cited source for all entries: patent US10316017B2
